Reported ID50, UniProt:P54833.

Before answering, review these 6 worked examples.
{"columns": ["compound", "result"],
 "data": [
  ["COC(=O)c1cc(NC(=O)c2cccs2)ccc1OCC(O)CNC(C)(C)C (stereo unspecified)", "> 1 mg/kg"],
  ["Cc1cc(NC(=O)c2cccs2)ccc1OCC(O)CNC(C)(C)C (stereo unspecified)", "> 1 mg/kg"],
  ["CC(C)(C)NCC(O)COc1ccc(NC(=O)c2cccs2)cc1C(=O)O (stereo unspecified)", "> 8 mg/kg"],
  ["CC(C)NCC(O)COc1ccc(NC(=O)c2cccs2)cc1 (stereo unspecified)", "> 1 mg/kg"],
  ["CC(C)(C)NCC(O)COc1ccc(NC(=O)c2cccs2)cc1 (stereo unspecified)", "> 1 mg/kg"],
  ["CC(C)NCC(O)COc1ccc(NC(=O)c2cccs2)cc1Cl (stereo unspecified)", "> 1 mg/kg"]
]}

The measured ID50 that CCOC(=O)c1cc(NC(=O)Cc2ccsc2)ccc1OCC(O)CNC(C)(C)C (stereo unspecified) showed for UniProt:P54833 is 0.38 mg/kg

The measured ID50 that CC(=O)c1cc(NC(=O)c2cccs2)ccc1OCC(O)CNC(C)(C)C (stereo unspecified) showed for UniProt:P54833 is > 1 mg/kg

The measured ID50 that CC(C)(C)NCC(O)COc1ccc(NC(=O)c2cccs2)cc1C#N (stereo unspecified) showed for UniProt:P54833 is 0.55 mg/kg

The measured ID50 that CCCOC(=O)c1cc(NC(=O)c2cccs2)ccc1OCC(O)CNC(C)(C)C (stereo unspecified) showed for UniProt:P54833 is > 1 mg/kg

The measured ID50 that CC(C)(C)NCC(O)COc1ccc(NC(=O)c2cccs2)cc1C(N)=O (stereo unspecified) showed for UniProt:P54833 is > 1 mg/kg

###

Readings of ID50 for the listed compounds
target: Beta-2 adrenergic receptor (Canis lupus familiaris) (UniProt P54833)
Sequence (P54833 whole entry, looked up): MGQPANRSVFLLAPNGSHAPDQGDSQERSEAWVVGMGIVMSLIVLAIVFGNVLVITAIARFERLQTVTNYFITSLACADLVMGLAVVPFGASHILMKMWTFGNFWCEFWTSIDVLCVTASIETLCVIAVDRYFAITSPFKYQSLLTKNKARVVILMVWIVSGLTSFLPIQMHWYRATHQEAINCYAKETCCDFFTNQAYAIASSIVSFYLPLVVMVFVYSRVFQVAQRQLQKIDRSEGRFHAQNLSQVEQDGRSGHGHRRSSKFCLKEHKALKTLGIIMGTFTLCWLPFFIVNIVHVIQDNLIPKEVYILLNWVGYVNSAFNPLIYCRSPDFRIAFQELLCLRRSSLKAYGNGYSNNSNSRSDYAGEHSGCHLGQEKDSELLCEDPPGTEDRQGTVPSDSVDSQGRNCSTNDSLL
Write the value in mg/kg as a bare number.

{"columns": ["compound", "test readout", "numeric result"],
 "data": [
  ["CCOC(=O)c1cc(NC(=O)Cc2cccs2)ccc1OCC(O)CNC(C)(C)C (stereo not given)", "ID50", 0.6]
]}

Moving on to another compound below.
According to the records, this compound CC(C)NCC(O)COc1ccc(NC(=O)c2cccs2)cc1C(=O)OC(C)C (stereo not given) displays ID50 of 0.25

###

biological target: Beta-1 adrenergic receptor (Homo sapiens); conditions: Canis lupus familiaris
Description: Compound was tested for beta-1 adrenergic receptor blocking activity in dogs
test readout: ID50 (mg/kg)
Write the value in mg/kg as a bare number.

Before answering, review these 8 worked examples.
{"columns": ["molecule", "value units", "numeric result"],
 "data": [
  ["CC(C)(C)NCC(O)COc1ccc(NC(=O)c2cccs2)cc1C(N)=O (stereo unspecified)", "mg/kg", 0.12],
  ["CCOC(=O)c1cc(NC(=O)Cc2ccsc2)ccc1OCC(O)CNC(C)(C)C (stereo unspecified)", "mg/kg", 0.015],
  ["CC(=O)c1cc(NC(=O)c2cccs2)ccc1OCC(O)CNC(C)(C)C (stereo unspecified)", "mg/kg", 0.022],
  ["COC(=O)c1cc(NC(=O)c2cccs2)ccc1OCC(O)CNC(C)C (stereo unspecified)", "mg/kg", 0.25],
  ["CC(C)NCC(O)COc1ccc(NC(=O)c2cccs2)cc1 (stereo unspecified)", "mg/kg", 0.045],
  ["CCOC(=O)c1cc(NC(=O)Cc2ccsc2)ccc1OCC(O)CNC(C)C (stereo unspecified)", "mg/kg", 0.02],
  ["CC(C)NCC(O)COc1ccc(NC(=O)c2cccs2)cc1C(=O)OC(C)C (stereo unspecified)", "mg/kg", 0.17],
  ["CCCOC(=O)c1cc(NC(=O)c2cccs2)ccc1OCC(O)CNC(C)(C)C (stereo unspecified)", "mg/kg", 0.27]
]}

According to the records, this molecule CC(C)(C)NCC(O)COc1ccc(NC(=O)c2cccs2)cc1Cl (stereo unspecified) displays ID50 of 0.014

According to the records, this molecule CCOC(=O)c1cc(NC(=O)c2ccsc2)ccc1OCC(O)CNC(C)(C)C (stereo unspecified) displays ID50 of 0.06

According to the records, this molecule Cc1cc(NC(=O)c2cccs2)ccc1OCC(O)CNC(C)(C)C (stereo unspecified) displays ID50 of 0.03

###

Reported ID50, UniProt:P54833.

Before answering, review these 5 worked examples.
{"columns": ["molecule", "ID50"],
 "data": [
  ["CCOC(=O)c1cc(NC(=O)Cc2ccsc2)ccc1OCC(O)CNC(C)C (stereo unspecified)", "> 1 mg/kg"],
  ["CCOC(=O)c1cc(NC(=O)c2cccs2)ccc1OCC(O)CNC(C)C (stereo unspecified)", "0.45 mg/kg"],
  ["CC(=O)c1cc(NC(=O)c2cccs2)ccc1OCC(O)CNC(C)C (stereo unspecified)", "> 1 mg/kg"],
  ["Cc1cc(NC(=O)c2cccs2)ccc1OCC(O)CNC(C)C (stereo unspecified)", "> 1 mg/kg"],
  ["CC(C)(C)NCC(O)COc1ccc(NC(=O)c2cccs2)cc1Cl (stereo unspecified)", "0.4 mg/kg"]
]}

Moving on to another molecule below.
The measured ID50 that CCOC(=O)c1cc(NC(=O)c2ccsc2)ccc1OCC(O)CNC(C)C (stereo unspecified) showed for UniProt:P54833 is > 1 mg/kg

###

target: Beta-1 adrenergic receptor (Homo sapiens) (UniProt P08588); details: Canis lupus familiaris
Sequence (P08588 whole entry, looked up): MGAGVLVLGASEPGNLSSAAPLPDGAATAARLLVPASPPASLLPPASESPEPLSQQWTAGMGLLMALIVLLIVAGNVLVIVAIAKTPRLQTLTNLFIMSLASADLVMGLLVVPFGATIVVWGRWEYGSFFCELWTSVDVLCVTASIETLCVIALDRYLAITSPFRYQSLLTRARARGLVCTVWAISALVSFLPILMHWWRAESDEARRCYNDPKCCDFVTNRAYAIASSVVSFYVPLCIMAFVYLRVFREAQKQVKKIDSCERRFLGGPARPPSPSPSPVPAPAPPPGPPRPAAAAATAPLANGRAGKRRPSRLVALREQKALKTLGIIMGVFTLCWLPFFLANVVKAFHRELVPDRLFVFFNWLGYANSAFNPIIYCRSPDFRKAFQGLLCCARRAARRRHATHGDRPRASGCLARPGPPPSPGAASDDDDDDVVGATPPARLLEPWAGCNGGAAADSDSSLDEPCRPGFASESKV
test readout: ID50 (mg/kg)
Write the value in mg/kg as a bare number.

Before answering, review these 5 worked examples.
{"columns": ["compound", "value units", "numeric result"],
 "data": [
  ["CC(C)NCC(O)COc1ccc(NC(=O)c2cccs2)cc1Cl (stereo unspecified)", "mg/kg", 0.17],
  ["CCOC(=O)c1cc(NC(=O)Cc2cccs2)ccc1OCC(O)CNC(C)(C)C (stereo unspecified)", "mg/kg", 0.004],
  ["CC(C)OC(=O)c1cc(NC(=O)c2cccs2)ccc1OCC(O)CNC(C)(C)C (stereo unspecified)", "mg/kg", 0.32],
  ["CCOC(=O)c1cc(NC(=O)c2ccsc2)ccc1OCC(O)CNC(C)C (stereo unspecified)", "mg/kg", 0.19],
  ["CC(=O)c1cc(NC(=O)c2cccs2)ccc1OCC(O)CNC(C)C (stereo unspecified)", "mg/kg", 0.45]
]}

According to the records, this compound CCOC(=O)c1cc(NC(=O)c2cccs2)ccc1OCC(O)CNC(C)C (stereo unspecified) displays ID50 of 0.3

According to the records, this compound CC(C)(C)NCC(O)COc1ccc(NC(=O)c2cccs2)cc1C#N (stereo unspecified) displays ID50 of 0.022

###

Reported ID50, Beta-2 adrenergic receptor (Canis lupus familiaris) (UniProt P54833).

Before answering, review these 2 worked examples.
{"columns": ["compound", "test readout", "result"],
 "data": [
  ["CC(C)OC(=O)c1cc(NC(=O)c2cccs2)ccc1OCC(O)CNC(C)(C)C (stereo not drawn)", "ID50", "> 1 mg/kg"],
  ["COC(=O)c1cc(NC(=O)c2cccs2)ccc1OCC(O)CNC(C)C (stereo not drawn)", "ID50", "> 1 mg/kg"]
]}

According to the records, this compound CCOC(=O)c1cc(NC(=O)c2ccsc2)ccc1OCC(O)CNC(C)(C)C (stereo not drawn) displays ID50 of > 1 mg/kg

###

biological target: Beta-1 adrenergic receptor (Homo sapiens) (UniProt P08588); conditions: Canis lupus familiaris
test readout: ID50 (mg/kg)
Write the value in mg/kg as a bare number.

Before answering, review these 2 worked examples.
{"columns": ["molecule", "target", "value units", "numeric result"],
 "data": [
  ["COC(=O)c1cc(NC(=O)c2cccs2)ccc1OCC(O)CNC(C)(C)C (centres undefined)", "Beta-1 adrenergic receptor (Homo sapiens) (UniProt P08588)", "mg/kg", 0.042],
  ["CC(C)(C)NCC(O)COc1ccc(NC(=O)c2cccs2)cc1 (centres undefined)", "Beta-1 adrenergic receptor (Homo sapiens) (UniProt P08588)", "mg/kg", 0.075]
]}

Moving on to another molecule below.
According to the records, this molecule Cc1cc(NC(=O)c2cccs2)ccc1OCC(O)CNC(C)C (centres undefined) displays ID50 of 0.02

From: ChEMBL document CHEMBL1123539
